Origin of measurements: the FLAb antibody collection (doi:10.7554/elife.23156)

Listing of recorded Kd by entry.
B1: scFv; the commonest letter at each place (parent)
chain 1: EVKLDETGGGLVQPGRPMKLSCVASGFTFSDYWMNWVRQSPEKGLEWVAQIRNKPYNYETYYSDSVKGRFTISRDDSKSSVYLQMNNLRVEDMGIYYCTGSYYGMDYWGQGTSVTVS
chain 2: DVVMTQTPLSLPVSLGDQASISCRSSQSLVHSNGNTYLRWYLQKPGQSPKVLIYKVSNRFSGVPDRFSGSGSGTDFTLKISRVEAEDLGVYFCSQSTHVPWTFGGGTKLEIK

Variants of: B1
experiment: Kd (Tite-Seq)
condition-summary: with fluorescein; format: scFv 4-4-20, heavy + light

chain 1 N35I ... ≥ 10 µM

As a next step, examine the variant that follows.
Need Kd, item chain 1 W36F V37C
0.000454 µM
